Procedure Summary: Plasma AMG 232 pharmacokinetics (HPLC-MS, non-compartmental analysis)
Assay type: in vivo, human
Experimental Context: human, plasma, oral, 300 mg, Day 7, dose escalation, 300 mg (n = 3–4); read-out: AUC24h, mean (SD)
Method: Non-compartmental analysis was performed using WinNonlin Professional software, version 6.3. Parameters were summarized descriptively.
Measure: AUC(0-t) (µg·h/mL)
Provide only the numeric value, understood in µg·h/mL.

Give reported AUC(0-t) value for CC(C)[C@@H](CS(=O)(=O)C(C)C)N1C(=O)[C@@](C)(CC(=O)O)C[C@H](c2cccc(Cl)c2)[C@H]1c1ccc(Cl)cc1 [AMG 232]
25
